Experiment: Apparent permeability from apical to basolateral side of MDCK2 cells at 5 uM after 120 mins by LC/MS/MS method
Format: ADME, cell-based, Canis lupus familiaris, MDCK-II
Settings: dog, MDCK
Quick list: Papp A→B at 2 h, 5 µM per entry.
Please reply with the bare figure in ×10⁻⁶ cm/s and do not write the unit itself.

Worked cases, Papp A→B at 2 h, 5 µM given:
O=C(Cn1c(=O)ccc2cc(C(F)(F)F)ccc21)Nc1scc(Br)c1-c1ncn[nH]1 : 3.62
O=C(Cn1c(=O)ccc2cc(F)c(F)cc21)Nc1scc(Br)c1-c1ncn[nH]1 : 8.31
N#Cc1ccc2c(ccc(=O)n2CC(=O)Nc2scc(Br)c2-c2ncn[nH]2)c1 : 3.43

Param item = "O=C(CN1C(=O)CCc2ncccc21)Nc1scc(Br)c1-c1ncn[nH]1" ; retrieve measured Papp A→B at 2 h, 5 µM.
36.8
